molecular target: EGFR (Homo sapiens, UniProt P00533); test: ADP-Glo kinase assay, EGFR; type: biochemical; design: purchased BPS Bioscience (assay run externally by the vendor); settings: Log[nM] 4.5; Set1
Sequence (P00533 25-1210): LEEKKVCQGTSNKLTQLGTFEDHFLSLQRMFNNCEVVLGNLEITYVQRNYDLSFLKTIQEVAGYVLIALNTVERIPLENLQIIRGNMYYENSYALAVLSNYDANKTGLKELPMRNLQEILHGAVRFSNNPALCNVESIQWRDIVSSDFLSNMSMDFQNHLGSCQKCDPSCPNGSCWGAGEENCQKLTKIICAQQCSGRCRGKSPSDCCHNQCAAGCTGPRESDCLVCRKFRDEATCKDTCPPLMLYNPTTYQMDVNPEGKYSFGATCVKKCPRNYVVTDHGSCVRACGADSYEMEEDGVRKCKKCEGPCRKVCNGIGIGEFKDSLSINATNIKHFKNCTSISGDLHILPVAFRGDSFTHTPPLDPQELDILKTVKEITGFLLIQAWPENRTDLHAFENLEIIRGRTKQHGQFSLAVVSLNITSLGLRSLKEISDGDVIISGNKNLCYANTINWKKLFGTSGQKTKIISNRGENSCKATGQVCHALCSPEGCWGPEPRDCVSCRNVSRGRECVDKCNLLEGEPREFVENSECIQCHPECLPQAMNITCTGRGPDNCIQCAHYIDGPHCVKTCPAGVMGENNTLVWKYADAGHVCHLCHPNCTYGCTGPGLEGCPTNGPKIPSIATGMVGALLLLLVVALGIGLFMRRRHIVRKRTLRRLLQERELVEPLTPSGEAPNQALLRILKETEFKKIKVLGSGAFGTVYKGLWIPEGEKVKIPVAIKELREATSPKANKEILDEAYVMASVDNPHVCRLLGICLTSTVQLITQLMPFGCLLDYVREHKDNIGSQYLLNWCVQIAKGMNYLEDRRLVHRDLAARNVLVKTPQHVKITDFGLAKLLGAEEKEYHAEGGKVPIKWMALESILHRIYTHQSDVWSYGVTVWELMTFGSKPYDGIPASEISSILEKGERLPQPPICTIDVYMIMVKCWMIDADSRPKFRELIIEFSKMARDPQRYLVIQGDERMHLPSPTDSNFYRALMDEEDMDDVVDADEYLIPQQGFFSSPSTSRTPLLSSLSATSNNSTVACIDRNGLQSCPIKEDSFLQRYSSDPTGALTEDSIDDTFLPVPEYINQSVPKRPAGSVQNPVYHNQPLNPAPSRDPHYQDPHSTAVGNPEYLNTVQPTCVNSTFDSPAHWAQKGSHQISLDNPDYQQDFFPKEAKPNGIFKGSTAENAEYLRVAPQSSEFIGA
Catalogue of compounds with associated EGFR % Activity Set1
Property: EGFR % Activity Set1 (%)

• Nc1nc(Nc2cccc(Br)c2)c2cc[nH]c2n1 = 2
• Cc1ccc(Nc2ncnc3[nH]ccc23)cc1 = 3
• Cc1ccccc1Nc1ncnc2[nH]ccc12 = 4
• c1ccc(Oc2ccc(Nc3ncnc4[nH]ccc34)cc2)cc1 = 5
• Clc1cccc(Nc2ncnc3[nH]ccc23)c1 = 0
• FC(F)(F)c1cccc(Nc2ncnc3[nH]ccc23)c1 = 0
• c1ccc(Cc2ccc(Nc3ncnc4[nH]ccc34)cc2)cc1 = 2
• Brc1cccc(Nc2ncnc3[nH]ccc23)c1 = 0
• Clc1ccc(Nc2ncnc3[nH]ccc23)cc1 = 1
• Clc1ccccc1Nc1ncnc2[nH]ccc12 = 4
• COc1ccc(Nc2ncnc3[nH]ccc23)cc1 = 8

----------
biological target: EGFR (Homo sapiens, UniProt P00533); test: ADP-Glo kinase assay, EGFR; format: biochemical; parameters: purchased BPS Bioscience (assay run externally by the vendor); conditions: Log[nM] 4.0; Set2
Catalogue of compounds with associated EGFR % Activity Set2
Property: EGFR % Activity Set2 (%)

* c1ccc(Cc2ccc(Nc3ncnc4[nH]ccc34)cc2)cc1 | 2
* Clc1ccc(Nc2ncnc3[nH]ccc23)cc1Br | 0
* Clc1ccc(Nc2ncnc3[nH]ccc23)cc1Cl | 0
* c1ccc(Nc2ncnc3[nH]ccc23)cc1 | 5
* COc1ccc(Nc2ncnc3[nH]ccc23)cc1 | 24
* Brc1ccc(Nc2ncnc3[nH]ccc23)cc1 | 2
* Cc1ccccc1Nc1ncnc2[nH]ccc12 | 12
* Cc1ccc(Nc2ncnc3[nH]ccc23)cc1 | 7
* Clc1ccccc1Nc1ncnc2[nH]ccc12 | 6
* Brc1cccc(Nc2ncnc3[nH]ccc23)c1 | 0
* Clc1ccc(Nc2ncnc3[nH]ccc23)cc1 | 2
* Clc1cccc(Nc2ncnc3[nH]ccc23)c1 | 0
* FC(F)(F)c1cccc(Nc2ncnc3[nH]ccc23)c1 | 1
* c1ccc(Oc2ccc(Nc3ncnc4[nH]ccc34)cc2)cc1 | 4
* Nc1nc(Nc2cccc(Br)c2)c2cc[nH]c2n1 | 5
* Cc1cccc(Nc2ncnc3[nH]ccc23)c1 | 1
* Fc1cc(Nc2ncnc3[nH]ccc23)ccc1Cl | 0

----------
target: EGFR (Homo sapiens); test: ADP-Glo kinase assay, EGFR; type: biochemical; set-up: purchased BPS Bioscience (assay run externally by the vendor); details: Log[nM] 3.5; Set1
The threshold is 5%. Values of EGFR % Activity Set1 beneath it are tagged class 1; values meeting or exceeding it are tagged class 0.

• Cc1ccccc1Nc1ncnc2[nH]ccc12 [Compound 15] = class 0
• Brc1cccc(Nc2ncnc3[nH]ccc23)c1 [Compound 2] = class 1
• Brc1ccc(Nc2ncnc3[nH]ccc23)cc1 [Compound 10] = class 0
• Cc1cccc(Nc2ncnc3[nH]ccc23)c1 [Compound 12] = class 1
• Nc1nc(Nc2cccc(Br)c2)c2cc[nH]c2n1 [Compound 8] = class 0

----------
Molecular target: aurora A kinase (AURKA) (Homo sapiens, UniProt O14965)
Construct: purchased BPS Bioscience (assay run externally by the vendor)
Sequence (O14965 1-403): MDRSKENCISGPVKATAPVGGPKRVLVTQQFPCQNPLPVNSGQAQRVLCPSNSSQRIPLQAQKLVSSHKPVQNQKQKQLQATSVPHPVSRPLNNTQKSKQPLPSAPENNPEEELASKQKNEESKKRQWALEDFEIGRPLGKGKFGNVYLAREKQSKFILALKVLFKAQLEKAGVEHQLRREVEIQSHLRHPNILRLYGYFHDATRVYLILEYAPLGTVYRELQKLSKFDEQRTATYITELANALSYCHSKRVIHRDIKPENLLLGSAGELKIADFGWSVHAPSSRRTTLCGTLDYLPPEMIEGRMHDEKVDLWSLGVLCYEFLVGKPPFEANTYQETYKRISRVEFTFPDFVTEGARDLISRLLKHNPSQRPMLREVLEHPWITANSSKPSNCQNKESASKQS
Assay: ADP-Glo kinase assay, Aurora A
Format: biochemical
Settings: Log[nM] 4.0; Set3
Property: Aurora A % Activity Set3 (%)

* Cc1ccccc1Nc1ncnc2[nH]ccc12 [Compound 15] | 48
* Clc1ccccc1Nc1ncnc2[nH]ccc12 [Compound 14] | 27
* COc1ccc(Nc2ncnc3[nH]ccc23)cc1 [Compound 6] | 27
* Clc1ccc(Nc2ncnc3[nH]ccc23)cc1 [Compound 4] | 25
* Fc1cc(Nc2ncnc3[nH]ccc23)ccc1Cl [Compound 3] | 16
* Cc1ccc(Nc2ncnc3[nH]ccc23)cc1 [Compound 9] | 30
* Cc1cccc(Nc2ncnc3[nH]ccc23)c1 [Compound 12] | 17
* c1ccc(Nc2ncnc3[nH]ccc23)cc1 [Compound 1] | 32
* Clc1ccc(Nc2ncnc3[nH]ccc23)cc1Cl [Compound 5] | 19
* Clc1cccc(Nc2ncnc3[nH]ccc23)c1 [Compound 11] | 19
* FC(F)(F)c1cccc(Nc2ncnc3[nH]ccc23)c1 [Compound 13] | 28
* Nc1nc(Nc2cccc(Br)c2)c2cc[nH]c2n1 [Compound 8] | 29
